The entries below are paired with their reported Ki.
MEASURED ON: hMC2 receptor (crude hMC2R membranes from CRE-bla-CHO-K1 cells stably expressing hMC2 receptor and hMRAP accessory protein) (Homo sapiens, UniProt Q01718)
Sequence (Q01718 whole entry): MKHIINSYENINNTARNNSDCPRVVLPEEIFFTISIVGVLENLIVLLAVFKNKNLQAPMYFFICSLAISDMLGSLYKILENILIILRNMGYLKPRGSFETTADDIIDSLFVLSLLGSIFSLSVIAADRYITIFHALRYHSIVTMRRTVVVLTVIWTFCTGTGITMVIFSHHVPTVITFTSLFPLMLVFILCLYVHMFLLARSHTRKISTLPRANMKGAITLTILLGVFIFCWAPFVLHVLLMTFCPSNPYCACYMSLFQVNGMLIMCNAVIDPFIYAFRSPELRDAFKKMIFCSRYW
Sequence (Q8TCY5 whole entry partner): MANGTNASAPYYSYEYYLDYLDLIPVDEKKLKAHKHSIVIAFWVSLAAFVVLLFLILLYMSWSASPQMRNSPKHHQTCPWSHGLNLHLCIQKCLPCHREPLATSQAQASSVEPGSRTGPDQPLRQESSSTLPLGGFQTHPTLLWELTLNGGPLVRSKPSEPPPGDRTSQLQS

- COMPOUND: "CCOc1ncccc1-c1ccc(C2(C(=O)N[C@@H]3CCN(C)C3)CCN(c3ccc(C(F)(F)F)cc3OC)CC2)cc1 [Compound 1-159]"
  Ki: "10 to 100 nM"
- COMPOUND: "Cn1cccc1-c1ccc(C2(NC(=O)[C@H]3CCNC3)CCN(c3ccc(C(F)(F)F)cc3C#N)CC2)cn1 [Compound 2-44]"
  Ki: "< 10 nM"
- COMPOUND: "CCOc1ncccc1-c1ccc(C2(C(=O)N[C@H]3CCN(C)C3)CCN(c3ccc(C(F)(F)F)nc3C#N)CC2)cn1 [Compound 1-26]"
  Ki: "< 10 nM"
- COMPOUND: "CNCCNC(=O)C1(c2cnc(-c3cccn3C)c(F)c2)CCN(c2ccc(C(F)(F)F)cc2Cl)CC1 [Compound 1-310]"
  Ki: "< 10 nM"
- COMPOUND: "CCOc1ncccc1-c1ncc(C2(C(=O)NCCNC)CCN(c3ccc(C(F)(F)F)cc3C#N)CC2)cc1F [Compound 1-311]"
  Ki: "< 10 nM"
- COMPOUND: "CN1CC[C@@H](NC(=O)C2(c3ccc(-c4cccc(F)c4O)nc3)CCN(c3ccc(C(F)(F)F)cc3C#N)CC2)C1 [Compound 1-129]"
  Ki: "10 to 100 nM"
- COMPOUND: "CNCCNC(=O)C1(c2cnc(-c3ccccc3OC)c(F)c2)CCN(c2ccc(C(F)(F)F)cc2Cl)CC1 [Compound 1-294]"
  Ki: "10 to 100 nM"
- COMPOUND: "CCOc1ncccc1-c1ccc(C2(C(=O)N[C@@H]3CCN(C)C3)CCN(c3ccc(C(F)(F)F)cc3C#N)CC2)nn1 [Compound 1-57]"
  Ki: "< 10 nM"
- COMPOUND: "CN(C)[C@@H]1COC[C@H]1NC(=O)C1(c2ccc(-c3cccn3C)nc2)CCN(c2ccc(C(F)(F)F)cc2C#N)CC1 [Compound 1-264]"
  Ki: "10 to 100 nM"
- COMPOUND: "CCOc1ncccc1-c1ncc(C2(C(=O)N[C@@H]3CCN(C)C3)CCN(c3ccc(C(F)(F)F)cc3C#N)CC2)cc1F [Compound 1-108]"
  Ki: "< 10 nM"
- COMPOUND: "CCOc1ncccc1-c1ccc(C2(NC(=O)N[C@H]3CCN(C)C3)CCN(c3ccc(C(F)(F)F)cc3C#N)CC2)cn1 [Compound 2-20]"
  Ki: "< 10 nM"
- COMPOUND: "CN1CC(CNC(=O)C2(c3ccc(-c4cccn4C)nc3)CCN(c3ccc(C(F)(F)F)cc3C#N)CC2)C1 [Compound 1-220]"
  Ki: "< 10 nM"
- COMPOUND: "COc1ccccc1-c1ccc(C2(NC(=O)N[C@H]3CCN(C)C3)CCN(c3ccc(C(F)(F)F)cc3C#N)CC2)cn1 [Compound 2-55]"
  Ki: "< 10 nM"
- COMPOUND: "COc1ncccc1-c1ncc(C2(C(=O)N[C@H]3CCN(C)C3)CCN(c3ccc(C(F)(F)F)nc3C#N)CC2)cc1F [Compound 1-133]"
  Ki: "< 10 nM"

====

Documented Ki across a set of compounds
MEASURED ON: hMC2 receptor (crude hMC2R membranes from CRE-bla-CHO-K1 cells stably expressing hMC2 receptor and hMRAP accessory protein) (Homo sapiens)
METRIC NAME: Ki

- COMPOUND SMILES: "Cn1cccc1-c1ccc(C2(C(=O)N[C@H]3C[C@@H](N(C)C)C3)CCN(c3ccc(C(F)(F)F)cc3C#N)CC2)cn1"
  METRIC NAME: "Ki"
  RESULT VALUE: "10 to 100 nM"
- COMPOUND SMILES: "CCOc1ccccc1-c1ccc(C2(C(=O)NCCN(C)C)CCN(c3ccc(C(F)(F)F)cc3F)CC2)cn1"
  METRIC NAME: "Ki"
  RESULT VALUE: "< 10 nM"
- COMPOUND SMILES: "Cc1sccc1-c1ccc(C2(C(=O)N[C@H]3CCN(C)C3)CCN(c3ccc(C(F)(F)F)cc3C#N)CC2)cn1"
  METRIC NAME: "Ki"
  RESULT VALUE: "< 10 nM"
- COMPOUND SMILES: "CCOc1ncccc1-c1ccc(C2(C(=O)NCCNC)CCN(c3ccc(C(F)(F)F)cc3Cl)CC2)cn1"
  METRIC NAME: "Ki"
  RESULT VALUE: "< 10 nM"
- COMPOUND SMILES: "CCOc1ncccc1-c1ccc(C2(C(=O)N[C@@H]3CCN(C)C3)CCN(c3ccc(C(F)(F)F)nc3C#N)CC2)cc1"
  METRIC NAME: "Ki"
  RESULT VALUE: "< 10 nM"
- COMPOUND SMILES: "Cn1cccc1-c1ccc(C2(C(=O)N[C@H]3CN4CCC3CC4)CCN(c3ccc(C(F)(F)F)cc3C#N)CC2)cn1"
  METRIC NAME: "Ki"
  RESULT VALUE: "10 to 100 nM"
- COMPOUND SMILES: "CCOc1ccccc1-c1ccc(C2(C(=O)N[C@H]3CCN(C)C3)CCN(c3ccc(C(F)(F)F)cc3F)CC2)nn1"
  METRIC NAME: "Ki"
  RESULT VALUE: "< 10 nM"

====

MEASURED ON: hMC2 receptor (crude hMC2R membranes from CRE-bla-CHO-K1 cells stably expressing hMC2 receptor and hMRAP accessory protein) (Homo sapiens, UniProt Q01718)
pKi: −log10 of the molar value.
Each item that follows carries a reported pKi.
METRIC NAME: pKi

- COMPOUND SMILES: "CCOc1ncccc1-c1ccc(C2(C(=O)N[C@@H](C)CNC)CCN(c3ccc(C(F)(F)F)cc3F)CC2)cn1"
  METRIC NAME: "pKi"
  RESULT VALUE: "> 8.00"
- COMPOUND SMILES: "COc1ccccc1-c1ccc(C2(C(=O)N[C@@H]3CCN(C)C3)CCN(c3ccc(C(F)(F)F)cc3C#N)CC2)cn1"
  METRIC NAME: "pKi"
  RESULT VALUE: "> 8.00"
- COMPOUND SMILES: "COc1sccc1-c1ccc(C2(C(=O)N[C@@H]3CCN(C)C3)CCN(c3ccc(C(F)(F)F)cc3C#N)CC2)cn1"
  METRIC NAME: "pKi"
  RESULT VALUE: "> 8.00"
- COMPOUND SMILES: "CCOc1ncccc1-c1ccc(C2(C(=O)NC[C@@H](C)N)CCN(c3ccc(C(F)(F)F)cc3C#N)CC2)cc1"
  METRIC NAME: "pKi"
  RESULT VALUE: "7.00 to 8.00"
- COMPOUND SMILES: "COc1ccccc1-c1ncc(C2(C(=O)NCCN(C)C)CCN(c3ccc(C(F)(F)F)cc3Cl)CC2)cc1F"
  METRIC NAME: "pKi"
  RESULT VALUE: "> 8.00"
- COMPOUND SMILES: "CN(C)CCNC(=O)C1(c2ccc(-c3cccn3C)nc2)CCN(c2ccc(C(F)(F)F)cc2C#N)CC1"
  METRIC NAME: "pKi"
  RESULT VALUE: "> 8.00"
- COMPOUND SMILES: "COc1ccccc1-c1ccc(C2(C(=O)NC[C@@H]3CCN3C)CCN(c3ccc(C(F)(F)F)cc3C#N)CC2)cn1"
  METRIC NAME: "pKi"
  RESULT VALUE: "> 8.00"
- COMPOUND SMILES: "CN1CC[C@@H](NC(=O)C2(c3ccc(-c4ccccc4C4CC4)nc3)CCN(c3ccc(C(F)(F)F)cc3C#N)CC2)C1"
  METRIC NAME: "pKi"
  RESULT VALUE: "> 8.00"
- COMPOUND SMILES: "CCOc1ncccc1-c1ncc(C2(C(=O)N[C@@H](C)CNC)CCN(c3ccc(C(F)(F)F)cc3F)CC2)cc1F"
  METRIC NAME: "pKi"
  RESULT VALUE: "> 8.00"
- COMPOUND SMILES: "COc1sccc1-c1ccc(C2(C(=O)N[C@H]3CCN(C)C3)CCN(c3ccc(C(F)(F)F)cc3Cl)CC2)cn1"
  METRIC NAME: "pKi"
  RESULT VALUE: "> 8.00"
- COMPOUND SMILES: "CCc1ccccc1-c1ccc(C2(C(=O)N[C@H]3CCN(C)C3)CCN(c3ccc(C(F)(F)F)cc3C#N)CC2)cn1"
  METRIC NAME: "pKi"
  RESULT VALUE: "> 8.00"
- COMPOUND SMILES: "COc1ccccc1-c1ccc(C2(C(=O)N[C@H]3CCN(C)C3)CCN(c3ccc(C(F)(F)F)cc3C#N)CC2)cn1"
  METRIC NAME: "pKi"
  RESULT VALUE: "> 8.00"
- COMPOUND SMILES: "CCOc1ncccc1-c1ccc(C2(C(=O)N[C@H]3CCN(C)C3)CCN(c3ncc(C(F)(F)F)cc3Cl)CC2)cn1"
  METRIC NAME: "pKi"
  RESULT VALUE: "7.00 to 8.00"
- COMPOUND SMILES: "COc1ccccc1-c1ccc(C2(C(=O)NCCN(C)C)CCN(c3ccc(C(F)(F)F)cc3F)CC2)cn1"
  METRIC NAME: "pKi"
  RESULT VALUE: "> 8.00"
- COMPOUND SMILES: "CN1CC[C@@H](NC(=O)C2(c3ccc(-c4cccn4C)nc3)CCN(c3ccc(C(F)(F)F)cc3C#N)CC2)C1"
  METRIC NAME: "pKi"
  RESULT VALUE: "> 8.00"
- COMPOUND SMILES: "CN1CC[C@H](NC(=O)C2(c3ccc(-c4cccn4C)nc3)CCN(c3ccc(C(F)(F)F)cc3F)CC2)C1"
  METRIC NAME: "pKi"
  RESULT VALUE: "> 8.00"
- COMPOUND SMILES: "CCOc1ncccc1-c1ccc(C2(NC(=O)CCN)CCN(c3ccc(C(F)(F)F)cc3C#N)CC2)cc1"
  METRIC NAME: "pKi"
  RESULT VALUE: "7.00 to 8.00"
- COMPOUND SMILES: "CCOc1ccccc1-c1ncc(C2(C(=O)N[C@H]3CCN(C)C3)CCN(c3ccc(C(F)(F)F)cc3C#N)CC2)cc1F"
  METRIC NAME: "pKi"
  RESULT VALUE: "> 8.00"
- COMPOUND SMILES: "CCc1ccccc1-c1ccc(C2(C(=O)N[C@H]3CCN(C)C3)CCN(c3ccc(C(F)(F)F)cc3Cl)CC2)cn1"
  METRIC NAME: "pKi"
  RESULT VALUE: "> 8.00"
- COMPOUND SMILES: "CN1CC[C@@H](NC(=O)C2(c3ccc(-c4ccc(C#N)n4C)nc3)CCN(c3ccc(C(F)(F)F)cc3C#N)CC2)C1"
  METRIC NAME: "pKi"
  RESULT VALUE: "7.00 to 8.00"
- COMPOUND SMILES: "CNCCCNC(=O)C1(c2cnc(-c3ccccc3OC)c(F)c2)CCN(c2ccc(C(F)(F)F)cc2C#N)CC1"
  METRIC NAME: "pKi"
  RESULT VALUE: "> 8.00"
- COMPOUND SMILES: "CCOc1ncccc1-c1ccc(C2(C(=O)NC[C@@H](CO)NC)CCN(c3ccc(C(F)(F)F)cc3C#N)CC2)cn1"
  METRIC NAME: "pKi"
  RESULT VALUE: "> 8.00"
- COMPOUND SMILES: "CCOc1ncccc1-c1ccc(C2(NC(=O)N3CC[C@@H](NC)C3)CCN(c3ccc(C(F)(F)F)cc3C#N)CC2)cn1"
  METRIC NAME: "pKi"
  RESULT VALUE: "> 8.00"
- COMPOUND SMILES: "CCOc1ncccc1-c1ncc(C2(C(=O)NCCN(C)C)CCN(c3ccc(C(F)(F)F)cc3F)CC2)cc1F"
  METRIC NAME: "pKi"
  RESULT VALUE: "> 8.00"
- COMPOUND SMILES: "CN1CC(C(=O)NC2(c3ccc(-c4cccn4C)nc3)CCN(c3ccc(C(F)(F)F)cc3C#N)CC2)C1"
  METRIC NAME: "pKi"
  RESULT VALUE: "> 8.00"
- COMPOUND SMILES: "CCOC(=O)N1CC[C@H](NC(=O)C2(c3ccc(-c4cccn4C)nc3)CCN(c3ccc(C(F)(F)F)cc3C#N)CC2)C1"
  METRIC NAME: "pKi"
  RESULT VALUE: "6.00 to 7.00"
- COMPOUND SMILES: "CCOc1ncccc1-c1ncc(C2(C(=O)N[C@H]3CCN(C)C3)CCN(c3ccc(C(F)(F)F)cc3F)CC2)cc1F"
  METRIC NAME: "pKi"
  RESULT VALUE: "> 8.00"
